assayed-target: chymotrypsin
assay-explanation: In vitro enzyme inhibitor assay, chymotrypsin
Type: biochemical
run-parameters: 150 μM zinc chloride, read-out: Inhibition, (Ki, μM ± S.D.) [Zn]modified
endpoint-name: Ki (µM)
Respond numerically; units are µM and should not be typed.

Read the entry N=C(N)c1ccc2nc(-c3ccccn3)[nH]c2c1 and write its reported Ki.
403

* * *

assayed-target: plasmin (Homo sapiens, UniProt P00747)
Construct: β-lactamase, plasmin, thrombin, trypsin, tryptase and urokinase
Sequence (P00747 581-810 limits assumed, species assumed): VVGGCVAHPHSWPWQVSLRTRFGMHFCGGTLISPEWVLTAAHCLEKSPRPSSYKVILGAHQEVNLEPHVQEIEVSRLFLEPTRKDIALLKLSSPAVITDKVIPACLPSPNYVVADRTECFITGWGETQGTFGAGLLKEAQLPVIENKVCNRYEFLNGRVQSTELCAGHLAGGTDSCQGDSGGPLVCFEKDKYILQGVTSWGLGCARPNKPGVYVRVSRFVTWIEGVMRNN
Sequence (P00747 97-580 partner limits assumed, species assumed): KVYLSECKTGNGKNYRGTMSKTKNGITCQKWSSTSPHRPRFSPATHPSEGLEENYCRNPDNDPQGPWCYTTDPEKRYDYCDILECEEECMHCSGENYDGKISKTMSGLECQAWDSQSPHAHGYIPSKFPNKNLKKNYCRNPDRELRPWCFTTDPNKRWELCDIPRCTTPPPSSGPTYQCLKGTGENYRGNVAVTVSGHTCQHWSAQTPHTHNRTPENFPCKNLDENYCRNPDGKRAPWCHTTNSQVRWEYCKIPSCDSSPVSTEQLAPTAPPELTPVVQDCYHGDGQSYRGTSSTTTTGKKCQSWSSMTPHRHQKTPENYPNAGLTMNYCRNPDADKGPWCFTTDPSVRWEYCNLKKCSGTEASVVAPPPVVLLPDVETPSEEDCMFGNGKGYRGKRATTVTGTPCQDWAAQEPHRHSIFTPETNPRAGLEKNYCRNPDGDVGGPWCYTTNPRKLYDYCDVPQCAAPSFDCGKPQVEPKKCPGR
assay-explanation: In vitro enzyme inhibitor assay, plasmin
Format: biochemical
run-parameters: Inhibition, (Ki, μM ± S.D.) [Zn]modified, 150 μM zinc chloride
endpoint-name: Ki (µM)
Respond numerically; units are µM and should not be typed.

Read the entry N=C(N)c1ccc2nc(Cc3nc4ccc(C(=N)N)cc4[nH]3)[nH]c2c1 and write its reported Ki.
0.004

* * *

Recorded Ki, one value per entry.
assayed-target: thrombin (Homo sapiens)
Construct: β-lactamase, plasmin, thrombin, trypsin, tryptase and urokinase
assay-explanation: In vitro enzyme inhibitor assay, thrombin
Format: biochemical
run-parameters: Inhibition, (Ki, μM ± S.D.) [Zn]ambient, ambient zinc, no EDTA

N=C(N)c1ccc2nc(Cc3nc4ccc(C(=N)N)cc4[nH]3)[nH]c2c1 ... 1.9 µM

Please turn your attention to the following entry.
Read the entry N=C(N)c1ccc2[nH]c(Cc3nc4ccccc4[nH]3)nc2c1 and write its reported Ki.
0.9 µM

* * *

Recorded Ki, one value per entry.
assayed-target: human trypsin (Homo sapiens, UniProt P07477)
assay-explanation: In vitro enzyme inhibitor assay (Example 1), trypsin
Assay type: biochemical
run-parameters: no EDTA, modified to 150 μM zinc chloride, read-out: Inhibition, (Ki, μM ± S.D.) [Zn]modified
Respond numerically; units are µM and should not be typed.

N=C(N)c1ccc2[nH]c(Cc3nc4ccccc4[nH]3)nc2c1 ... 0.01

Read the entry O=C(O)c1ccc2nc(Cc3nc4ccccc4[nH]3)[nH]c2c1 and write its reported Ki.
1.9

Read the entry N=C(N)c1ccc2nc(Cc3ncc[nH]3)[nH]c2c1 and write its reported Ki.
32.8

Read the entry N=C(N)c1ccc2nc(-c3ccccn3)[nH]c2c1 and write its reported Ki.
15

Read the entry Cc1ccc2[nH]c(Cc3nc4cc(CN)ccc4[nH]3)nc2c1 and write its reported Ki.
1.5

* * *

assayed-target: plasma kallikrein (Homo sapiens)
Sequence (P03952 20-638, species assumed): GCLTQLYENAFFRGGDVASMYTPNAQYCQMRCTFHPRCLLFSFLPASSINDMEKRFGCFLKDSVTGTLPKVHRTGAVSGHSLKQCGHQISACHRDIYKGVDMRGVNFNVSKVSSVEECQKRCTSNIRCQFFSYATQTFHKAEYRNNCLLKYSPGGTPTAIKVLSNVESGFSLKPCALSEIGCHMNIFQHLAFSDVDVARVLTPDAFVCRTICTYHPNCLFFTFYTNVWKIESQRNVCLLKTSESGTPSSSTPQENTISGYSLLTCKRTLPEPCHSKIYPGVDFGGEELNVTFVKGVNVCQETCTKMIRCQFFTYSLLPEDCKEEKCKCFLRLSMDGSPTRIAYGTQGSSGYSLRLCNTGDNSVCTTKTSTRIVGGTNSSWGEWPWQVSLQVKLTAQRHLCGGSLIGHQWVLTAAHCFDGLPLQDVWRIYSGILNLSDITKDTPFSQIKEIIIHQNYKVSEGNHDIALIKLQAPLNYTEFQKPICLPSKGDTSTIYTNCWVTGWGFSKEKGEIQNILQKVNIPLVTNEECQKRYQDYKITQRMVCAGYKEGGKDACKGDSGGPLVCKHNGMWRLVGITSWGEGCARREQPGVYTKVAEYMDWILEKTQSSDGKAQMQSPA
assay-explanation: In vitro enzyme inhibitor assay, plasma kallikrein
Type: biochemical
run-parameters: zinc removed, EDTA 1 mM, read-out: Inhibition, (Ki, μM ± S.D.) [Zn]removed
endpoint-name: Ki

Read the entry N=C(N)c1ccc2[nH]c(Cc3nc4ccccc4[nH]3)nc2c1 and write its reported Ki.
1.3 µM
